- System: 11-beta-hydroxysteroid dehydrogenase 1 (Mus musculus, UniProt P50172)
- Sequence (P50172 whole entry): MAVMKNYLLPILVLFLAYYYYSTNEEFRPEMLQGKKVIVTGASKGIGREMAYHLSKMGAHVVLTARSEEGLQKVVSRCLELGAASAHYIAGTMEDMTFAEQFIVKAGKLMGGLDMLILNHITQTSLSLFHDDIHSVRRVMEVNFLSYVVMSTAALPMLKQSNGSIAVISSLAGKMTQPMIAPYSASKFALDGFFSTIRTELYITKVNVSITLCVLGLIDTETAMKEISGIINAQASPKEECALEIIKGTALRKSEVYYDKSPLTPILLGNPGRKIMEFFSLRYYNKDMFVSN
- Test Details: Inhibition of mouse 11beta-HSD1 expressed in HEK293 cells
- Format: cell-based
Test Readout: pIC50
Lab note: report pIC50 as minus log10 of the concentration in molar units, number only.

Q. Give its pIC50 value. Item: CS(=O)(=O)NCCC(=O)N1CCC(c2cc(C(=O)N3CCC[C@H]4CCCC[C@H]43)cs2)CC1
A. 6.28

----------
- System: 11-beta-hydroxysteroid dehydrogenase 1 (Mus musculus)
- Test Details: Inhibition of mouse 11beta-HSD1
Below is a list of entries, each paired with its recorded IC50 value.
Reply with the number, then its unit.

Past entries and their recorded results:
molecule=Cc1c(Cl)cccc1S(=O)(=O)N1CCCC[C@@H]1C(=O)N[C@H]1C2CC3CC1C[C@](O)(C3)C2 test_readout=IC50 reading="15 nM"
molecule=Cc1c(Cl)cccc1S(=O)(=O)N1CCC[C@H](C(=O)N[C@H]2C[C@@H]3CC[C@@]2(C)C3(C)C)C1 test_readout=IC50 reading="18 nM"
molecule=CN(C(=O)c1csc(CNS(=O)(=O)c2cccc(Cl)c2)n1)C1CCCCCC1 test_readout=IC50 reading="307 nM"

Here's the next entry for you.
Q. Name the reported IC50 value associated with the molecule CC1(C)C(=O)N(c2cccc(S(C)(=O)=O)c2)C1c1cccc2nccnc12 (centres undefined)
A. 350 nM

----------
- Test Details: Drug excretion in healthy human urine
- Format: ADME, tissue-based
- Protocol Conditions: read-out: Drug excretion
Test Readout: dose excreted

Q. Give its dose excreted value. Item: N#Cc1ccc(-c2ccc(S(=O)(=O)Nc3cccc(N)n3)cc2)cc1
A. < 1%

----------
Examples of compounds with documented bioavailability follow.
- Test Details: Oral bioavailability in mouse
- Format: ADME, organism-based
- Protocol Conditions: in vivo
Answer with a number only, understood to be in %.

# annotated cases, reported bioavailability shown
compound=Cc1c(Cl)cccc1S(=O)(=O)N1CCCC[C@@H]1C(=O)N[C@H]1C2CC3CC1C[C@](O)(C3)C2 reading=3
compound=Cc1c(Cl)cccc1S(=O)(=O)Nc1nc(CC(=O)N2CCN(C)CC2)cs1 reading=21

Moving on to another compound below.
Q. // query bioavailability value for entry CC1(C)C(=O)N(c2cccc(S(C)(=O)=O)c2)C1c1cccc2nccnc12 (stereo not drawn)
A. 22

----------
- System: Voltage-gated inwardly rectifying potassium channel KCNH2 (Homo sapiens)
- Sequence (Q12809 whole entry): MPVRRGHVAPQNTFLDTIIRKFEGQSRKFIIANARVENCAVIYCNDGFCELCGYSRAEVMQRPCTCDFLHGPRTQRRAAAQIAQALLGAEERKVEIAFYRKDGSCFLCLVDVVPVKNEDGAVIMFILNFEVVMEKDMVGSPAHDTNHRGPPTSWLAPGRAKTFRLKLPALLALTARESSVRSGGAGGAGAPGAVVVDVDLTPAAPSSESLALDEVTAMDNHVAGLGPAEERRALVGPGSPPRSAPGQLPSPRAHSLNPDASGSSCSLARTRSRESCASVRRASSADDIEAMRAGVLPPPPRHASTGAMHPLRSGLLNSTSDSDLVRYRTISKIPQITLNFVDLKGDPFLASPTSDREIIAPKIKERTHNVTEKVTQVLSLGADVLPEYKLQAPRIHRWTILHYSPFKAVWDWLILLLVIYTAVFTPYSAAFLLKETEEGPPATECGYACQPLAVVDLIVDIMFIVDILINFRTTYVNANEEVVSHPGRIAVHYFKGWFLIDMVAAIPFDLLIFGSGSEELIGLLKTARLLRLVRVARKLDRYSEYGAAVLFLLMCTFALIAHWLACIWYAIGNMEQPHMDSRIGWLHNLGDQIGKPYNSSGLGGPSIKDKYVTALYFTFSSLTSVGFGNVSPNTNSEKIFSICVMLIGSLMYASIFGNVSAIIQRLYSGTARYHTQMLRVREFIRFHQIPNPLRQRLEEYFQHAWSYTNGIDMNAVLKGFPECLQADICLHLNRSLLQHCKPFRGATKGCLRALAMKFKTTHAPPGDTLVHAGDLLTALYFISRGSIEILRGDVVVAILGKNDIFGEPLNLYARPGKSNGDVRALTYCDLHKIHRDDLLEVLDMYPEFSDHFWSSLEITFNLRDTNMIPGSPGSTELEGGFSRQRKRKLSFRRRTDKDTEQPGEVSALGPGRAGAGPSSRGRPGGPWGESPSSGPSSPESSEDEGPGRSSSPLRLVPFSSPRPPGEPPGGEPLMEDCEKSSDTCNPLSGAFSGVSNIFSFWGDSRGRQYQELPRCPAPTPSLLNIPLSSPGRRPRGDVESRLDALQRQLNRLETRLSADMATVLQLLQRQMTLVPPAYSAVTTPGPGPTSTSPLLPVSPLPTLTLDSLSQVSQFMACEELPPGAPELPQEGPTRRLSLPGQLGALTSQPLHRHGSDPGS
pIC50: −log10 of the molar value.
Test Readout: pIC50

Q. Request body: readout pIC50, system Voltage-gated inwardly rectifying potassium channel KCNH2 (Homo sapiens), query O=C(CN1C(C(=O)c2ccccc2)=C(O)c2ccccc2S1(=O)=O)c1ccccc1 . Return the value.
A. < 4.00

----------
- Test Details: Clearance in mouse
- Assay type: ADME, organism-based
- Protocol Conditions: in vivo
Test Readout: clearance (L/h/kg)
Quick note: give the figure in L/h/kg, leave out the unit.

molecule=Cc1c(Cl)cccc1S(=O)(=O)N1CCCC[C@@H]1C(=O)N[C@H]1C2CC3CC1C[C@](O)(C3)C2 reading=7.8

Q. Quick check: clearance of CC1(C)C(=O)N(c2cccc(S(C)(=O)=O)c2)C1c1cccc2nccnc12 (configuration not stated) ?
A. 2.52

----------
- Test Details: Clearance in healthy human by 14 day test
- Type: ADME, organism-based
- Protocol Conditions: in vivo
Test Readout: clearance (mL/min)
Give just the number in mL/min; leave the unit off.

Q. Need clearance of N#Cc1ccc(-c2ccc(S(=O)(=O)Nc3cccc(N)n3)cc2)cc1 , thanks.
A. 16.7
